I'd appreciate it if you could supply OD450 values for the items below.
Target Desc: T1, Peptide A (human PAR-2), unbiotinylated (Human)
T1 construct: also called Peptide A No Biotin
T1 peptide: GTNRSSKGRSLIGKVDGT
Assay Remarks: peptide ELISA
Experimental: Anti-PAR-2 antibodies were tested for their ability to bind to the PAR-2 peptides. […] Detection of bound antibodies was determined with Horse-Radish Peroxidase (HRP) conjugated anti-mouse or human IgG (Jackson Immuno Research Lab, West Grove, Pa.) and developed by standard colorimetric response using tetramethylbenzidine (TMB) substrate. Absorbance was read at OD₄₅₀ for 0.1 second.

{"columns": ["Binder", "Result"],
 "data": [
  ["H2M609N (antibody, V domains shown, chimeric: human variable, mouse constant domains) VH: EVQLVESGGGLVQPGRSLRLSCAASGFTFDDYAMHWVRQAPGKGLEWVSGISWNSGSKGFADSVKGRFTISRDNAKNSLYLQMNSLRVEDTALYYCAKENWSFDYWGQGTLVTVSS VL: DIVMTQTPLSSPVTLGQPASISCRSSQSLVHSDGNIYLSWLQQRPGQPPRLLIYKISNRFSGVPDRFSGSGAGTDFTLKISRVEAEDVGIYYCMQASHFPYTFGQGTKLEIK", "1 to 4 od"]
]}

Continue with the next binder.
Look up and state reported OD450 for H2M589N (antibody, V domains shown, chimeric: human variable, mouse constant domains) VH: EVQLLESGGGLVQPGGSLRLSCATSGFTFSRYTMTWVRQAPGKGLFWVSGIGGSGGRAYYADSVKGRFTLSRDNSKNTLYLQMNSLRAEDTAVYYCAKEGDSGYDLDYWGRGTLVTVSS VL: DIQMTQYPSSLSASVGDRVTITCRARQGISNYLAWLQQKPGKAPKSLIYAASSLQRGVPSKFSGSGSGTDFTLTISSLQPEDSATYYCQQYKISPLTFGGGTKVEIK
1 to 4 od
